- method_description: HUVEC growth inhibition – cell-based, human, primary screen (AID 575);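 further: 100% = median of untreated cell wells with 0.1% DMSO on each plate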
- measurement_context: HUVEC proliferation, CellTiter-Glo luminescence, 72 h; at 10 µM; hits give low values
Sorting guide: entries reporting viability beneath 90% go in the class 1 pile, the rest go in the class 0 pile.

Cc1cccc(-n2c(-c3ccco3)nc3ccccc3c2=O)n1 = class 0
CC(C)OCCCNC(=O)c1c(N)n(Cc2cccs2)c2nc3ccccc3nc12 = class 1

Prompt: Does COc1ccccc1N1CCN(Cc2c(F)cccc2F)CC1 have viability strictly under 90%?
Completion: class 0

Prompt: Then what about the compound CCN(CC)CCN=Cc1c(O)n(CCC2=CCCCC2)c(=O)[nH]c1=O ?
Completion: class 1

Prompt: Then what about the compound CCCC(C)C1C(C#N)=C(N)Oc2c1c(=O)oc1ccccc21 (centres undefined) ?
Completion: class 1

Prompt: Then what about the compound O=C(Cn1cc(C(=O)c2ccccc2)c2ccccc21)NCc1ccco1 ?
Completion: class 1

Prompt: Then what about the compound O=P(OCC(F)(F)C(F)F)(N1CCCCC1)N1CCCCC1 ?
Completion: class 0

---

// reported inhibition for each item listed
- target_or_test_system: Pantothenate synthetase (Mycobacterium tuberculosis (strain ATCC 25618 / H37Rv))
- method_description: Coupled enzyme confirmation of inhibitors against recombinant Mtb PanC (AID 375);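 further: 0% = full reaction with vehicle and 100% = no enzyme background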
- measurement_context: coupled enzyme assay; at 10 µM, hits give high values
Reply numerically in %, unit not repeated.

Cc1nc(NCc2ccc3c(c2)OCO3)c2oc3ccccc3c2n1 = 1
O=C(CN1C(=O)c2ccccc2C1=O)Nc1ccccc1C(=O)N1CCCC1 = 1

Prompt: Name the recorded inhibition for Cc1nn(-c2ccccc2)c2[nH]c(C(F)(F)F)cc(=O)c12 .
Completion: 1

---

- target_or_test_system: Pantothenate synthetase (Mycobacterium tuberculosis (strain ATCC 25618 / H37Rv)) (UniProt P9WIL5)
- Sequence (P9WIL5 whole entry, looked up): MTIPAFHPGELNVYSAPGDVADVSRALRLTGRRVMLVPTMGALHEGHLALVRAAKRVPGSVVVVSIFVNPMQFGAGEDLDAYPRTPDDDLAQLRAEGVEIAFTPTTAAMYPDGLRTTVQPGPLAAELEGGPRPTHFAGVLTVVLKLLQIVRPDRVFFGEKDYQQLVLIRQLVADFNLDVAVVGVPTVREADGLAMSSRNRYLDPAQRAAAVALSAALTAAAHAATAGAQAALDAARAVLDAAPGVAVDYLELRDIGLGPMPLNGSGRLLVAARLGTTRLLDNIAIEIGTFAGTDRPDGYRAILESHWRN
- method_description: Coupled enzyme confirmation of inhibitors against recombinant Mtb PanC (AID 375);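 further: 0% = full reaction with vehicle and 100% = no enzyme background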
- measurement_context: coupled enzyme assay; at 10 µM, hits give high values
// reported inhibition for each item listed
Reply numerically in %, unit not repeated.

CC(C)NC(=O)c1ccccc1NC(=O)CCS(=O)(=O)Cc1ccccc1 = 2
CSCCC(N=CC1=C(O)CC(C)(C)CC1=O)C(=O)O (stereo not drawn) = 2
COc1ccc(S(=O)(=O)N2CCN(C3CCCCCCC3)CC2)cc1 = 1

Prompt: Name the recorded inhibition for COC(=O)c1c(-c2cccs2)csc1NC(=O)CN1CCOCC1 .
Completion: 0

Prompt: Then what about the compound COc1ccc2[nH]c(C)c(CCN3C(=O)OC(C)(C)C3(C)O)c2c1 (stereo not drawn) ?
Completion: 0

---

- target_or_test_system: Pantothenate synthetase (Mycobacterium tuberculosis (strain ATCC 25618 / H37Rv)) (UniProt P9WIL5)
- method_description: Coupled enzyme confirmation of inhibitors against recombinant Mtb PanC (AID 375);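 further: 0% = full reaction with vehicle and 100% = no enzyme background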
- measurement_context: coupled enzyme assay; at 10 µM, hits give high values
// reported inhibition for each item listed
Reply numerically in %, unit not repeated.

Cc1nn(C)c(C)c1CNC(=O)c1cc2n(n1)C(C(F)(F)F)CC(c1cccs1)N2 (configuration not stated) = 7
COC(=O)CC(C(=O)Nc1cc(C(=O)OC)cc(C(=O)OC)c1)N1CCN(C)CC1 (configuration not stated) = 3
COc1cccc(-c2nc(CS(=O)(=O)CC(=O)Nc3cc(C)ccc3C)c(C)o2)c1 = 0
Cc1ccc(-c2cn3cccnc3n2)cc1NC(=O)c1ccc(Br)o1 = 0
COc1cccc(OCC(=O)Nc2ccccc2C(N)=O)c1 = 4

Prompt: Name the recorded inhibition for Cc1ccsc1C(C(=O)NC1CCCCC1)N(C(=O)Cc1cccs1)C1CC1 (configuration not stated) .
Completion: 0

Prompt: Then what about the compound CN1CC=C2C(C#N)=C(N)C(C#N)(C#N)C(Cc3ccccc3)C2C1 (configuration not stated) ?
Completion: 0
